Target: Protein translocase subunit SecA (Escherichia coli (strain K12)) (UniProt P10408)
Sequence (P10408 whole entry): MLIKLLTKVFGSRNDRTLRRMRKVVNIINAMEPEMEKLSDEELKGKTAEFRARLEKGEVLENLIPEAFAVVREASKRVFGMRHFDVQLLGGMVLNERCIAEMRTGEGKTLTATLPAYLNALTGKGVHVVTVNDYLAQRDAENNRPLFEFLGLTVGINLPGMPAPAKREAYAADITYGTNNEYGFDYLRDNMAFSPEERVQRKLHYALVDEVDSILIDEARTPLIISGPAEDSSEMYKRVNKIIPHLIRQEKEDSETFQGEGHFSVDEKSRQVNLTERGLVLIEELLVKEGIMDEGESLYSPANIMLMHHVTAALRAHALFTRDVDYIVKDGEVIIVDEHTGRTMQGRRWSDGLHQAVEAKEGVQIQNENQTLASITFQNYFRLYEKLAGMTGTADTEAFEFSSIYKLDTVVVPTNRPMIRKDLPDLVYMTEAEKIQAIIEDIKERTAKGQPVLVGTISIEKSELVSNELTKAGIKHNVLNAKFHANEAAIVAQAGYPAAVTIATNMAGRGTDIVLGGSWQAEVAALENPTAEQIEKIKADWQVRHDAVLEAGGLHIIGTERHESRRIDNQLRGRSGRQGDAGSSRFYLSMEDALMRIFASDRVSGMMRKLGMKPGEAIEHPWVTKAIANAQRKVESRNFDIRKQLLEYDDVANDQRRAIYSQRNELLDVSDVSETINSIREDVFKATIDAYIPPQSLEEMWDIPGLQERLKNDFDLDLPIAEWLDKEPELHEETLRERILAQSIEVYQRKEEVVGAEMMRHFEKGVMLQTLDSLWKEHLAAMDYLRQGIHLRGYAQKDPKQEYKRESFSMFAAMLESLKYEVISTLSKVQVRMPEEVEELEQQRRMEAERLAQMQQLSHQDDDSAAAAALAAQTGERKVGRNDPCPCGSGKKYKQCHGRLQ
Measurement notes: Assay to Identify E. coli SecA ATPase Inhibitors
Assay type: functional
Parameters: scale not given: direction of the effect not stated beside the values
Measurement parameters: 30 µM
Entries with a potency or affinity are not part of this list.
List of Percent Effect values.
Number in %, nothing else.

// worked examples, Percent Effect included
Compound: CCc1nc(CN(C)C2CCN(CCn3cc(C#N)cn3)C2)no1 (centres undefined)
Output unit: %
Experimental result: 1.6
//
Compound: O=c1c2cnc(N3CCCCC3)nc2ccn1-c1ccccc1
Output unit: %
Experimental result: -4.04
//
Compound: Cc1nc2ccccc2c(=O)n1CCC(=O)N1CCSCC1
Output unit: %
Experimental result: -6.49
//
Compound: COCC1CC2(CCN(C(=O)c3occc3C)CC2)CO1 (centres undefined)
Output unit: %
Experimental result: -0.186
//
Compound: CN(C)C(C(=O)N1CCC(N2CCSCC2)CC1)c1ccccc1F (centres undefined)
Output unit: %
Experimental result: -0.819

Q) Would you mind telling me what Percent Effect value was observed for `Cc1nn(C)c2c(N3CCN(C(=O)C4CCC4)CC3)ncnc12` ?
A) -0.898

Q) Item under review: `CCCc1cc(C(=O)N(C)Cc2cccc3ncccc23)n(C)n1` . Reported Percent Effect?
A) -4.03

Q) What value of Percent Effect has been recorded for this entry: `Cc1cc(C)c2nc(CN3CC[C@@H](O)C3)cc(O)c2c1`
A) -2.1

Q) Percent Effect lookup needed for `COc1cc2cc(C(=O)O)n(C)c2c(OC)c1OC` , thanks.
A) 2.1
